# run description: BET inhibitor-based combinations targeting novel dependencies in MECOM-rearranged (r) AML: AML-194 cell line (AID 2202237; also: nearly all actives have a fitted effect of over 40% in size)
# stated conditions: AML-194 (MECOM-r AML) viability, CellTiter-Glo, 48 h; series mostly up to 46 µM
Records with an inconclusive call do not appear. Calls of active or inactive are those of the source. Calls follow the shape of the dose curve; as a rule, active = well fitted inhibition curve with a large enough effect; inconclusive = small, poorly fitted or top-dose-only effect; inactive = flat fitted curve, though single readings scatter.
Outcome codes: active, inactive

[
  {
    "sample smiles": "Cc1cc(N2CCOCC2)ccc1Nc1nc(NC2CCCCC2)c2[nH]cnc2n1",
    "category": "active"
  },
  {
    "sample smiles": "Cc1cccc(Oc2cnc(=O)[nH]c2)c1",
    "category": "inactive"
  },
  {
    "sample smiles": "Cc1[nH]c(/C=C2\\C(=O)Nc3ccc(S(=O)(=O)N(C)c4cccc(Cl)c4)cc32)c(C)c1C(=O)N1CCN(C)CC1",
    "category": "active"
  },
  {
    "sample smiles": "O=[N+]([O-])c1cn2c(n1)OC[C@@H](OCc1ccc(OC(F)(F)F)cc1)C2",
    "category": "inactive"
  },
  {
    "sample smiles": "Cc1ccc(S(=O)(=O)N[C@@H](Cc2ccccc2)C(=O)CCl)cc1",
    "category": "active"
  },
  {
    "sample smiles": "CN1CC[C@@H](NC(=O)Nc2ccc(C#N)cc2)C[C@@H]1c1nc2ccccc2[nH]1",
    "category": "inactive"
  },
  {
    "sample smiles": "N#Cc1ccnc(N2C(=O)CC[C@H]2C(=O)N(c2cncc(F)c2)[C@H](C(=O)NC2CC(F)(F)C2)c2ccccc2Cl)c1",
    "category": "inactive"
  },
  {
    "sample smiles": "Cc1nc(N)sc1-c1ccnc(Nc2ccc(N3CCOCC3)cc2)n1",
    "category": "active"
  },
  {
    "sample smiles": "COc1ccc(C(=O)C2CCN(CC(=O)N(Cc3nc4c(c(=O)[nH]3)COCC4)CC3CC3)CC2)cc1",
    "category": "inactive"
  },
  {
    "sample smiles": "Oc1ccc(Nc2nc(-c3ccc(Cl)cc3)cs2)cc1",
    "category": "inactive"
  },
  {
    "sample smiles": "COC(=O)Nc1nc2ccc(C(=O)c3ccc(F)cc3)cc2[nH]1",
    "category": "active"
  },
  {
    "sample smiles": "CN(C)c1cccc(-c2c3c(=O)n(-c4ccccc4Cl)[nH]c3cc(=O)n2C)c1",
    "category": "inactive"
  },
  {
    "sample smiles": "COc1cccc2nc(-c3cccs3)nc(NN3C(=O)C=C(C)C3=O)c12",
    "category": "active"
  },
  {
    "sample smiles": "CN(C)CC(C)(C)CNc1nn2c(-c3ccccc3)nnc2cc1C1CCC1",
    "category": "inactive"
  },
  {
    "sample smiles": "CCCS(=O)(=O)Nc1ccc(F)c(C(=O)c2c[nH]c3ncc(-c4ccc(Cl)cc4)cc23)c1F",
    "category": "inactive"
  },
  {
    "sample smiles": "COc1cc(C(=O)NC2CCN(C)CC2)ccc1Nc1ncc2c(n1)N(C1CCCC1)CCC(=O)N2C(C)C",
    "category": "active"
  },
  {
    "sample smiles": "C=CCn1c(=O)c2cnc(Nc3ccc(N4CCN(C)CC4)cc3)nc2n1-c1cccc(C(C)(C)O)n1",
    "category": "active"
  },
  {
    "sample smiles": "O=C(NC1CCNCC1)c1[nH]ncc1NC(=O)c1c(Cl)cccc1Cl",
    "category": "active"
  },
  {
    "sample smiles": "CCCCCCCc1ccc(CCc2cccc(O)c2C(=O)O)cc1",
    "category": "inactive"
  },
  {
    "sample smiles": "CCC[C@H](N[C@H]1CCc2cc(F)cc(F)c2C1)C(=O)Nc1cn(C(C)(C)CNCC(C)(C)C)cn1",
    "category": "inactive"
  }
]
